- assay explanation: Dose range finding study by intravenous route with toxicokinetics
- Format: in vivo, beagle dogs
- experimental setup: male, beagle, iv; Day 13; 0.8 mg/kg i.v.; dog plasma; mean n = 2; read-out: C15 min
observable: level at […] (ng/mL)
Your answer should be a plain number; it is taken to be in ng/mL.

Reported level at […] for CC(C)C[C@@H]1NC(=O)[C@H](Cc2cccc(NC(=O)CCCS(N)(=O)=O)c2)NC(=O)[C@H](CC(=O)O)NC(=O)[C@H]2CCCN2C(=O)[C@H](CCC(=O)O)NC(=O)[C@@H](NC(=O)[C@H](CCC(N)=O)NC(=O)CN2CCN(C(=O)CN3CCN(CC(=O)O)CCN(CC(=O)O)CCN(CC(=O)O)CC3)CC2)CSCc2cccc(c2)CSC[C@@H](C(N)=O)NC(=O)[C@H](CO)NC(=O)[C@H](Cc2c[nH]c3ccccc23)NC(=O)[C@H]([C@@H](C)O)NC1=O : what is it?
2000

---

- assay explanation: Biodistribution study (SPECT/CT) in HT-29 tumor-bearing mice
- Format: in vivo, NMRI nude mice
- experimental setup: female, NMRI nude, mouse, in vivo, iv, total radioactivity, Tumor/kidney uptake ratio at 24 h p.i.
- Description: The effect on tumor uptake of prior injection of gelofusine for kidney protection was investigated in mice bearing the SK-RC-52 tumor. Biodistribution was evaluated using in vivo SPECT/CT imaging. Prior to the in vivo study the compounds (ligands) were initially radiolabeled with In-111 and the stability of radiolabeled compounds was evaluated in buffer at three different timepoints. […]
observable: tissue to tissue ratio at 24 h
Answer as a number with no unit attached.

Which tissue to tissue ratio at 24 h is listed for CC(C)C[C@@H]1NC(=O)[C@H](Cc2ccc(NC(=O)CCS(N)(=O)=O)cc2)NC(=O)[C@H](CC(=O)O)NC(=O)[C@H]2CCCN2C(=O)[C@H](CCC(=O)O)NC(=O)[C@@H](NC(=O)[C@H](CCC(N)=O)NC(=O)CN2CCN(CC(=O)O)CCN(CC(=O)O)CCN(CC(=O)O)CC2)CSCc2cccc(c2)CSC[C@@H](C(N)=O)NC(=O)[C@H](CO)NC(=O)[C@H](Cc2c[nH]c3ccccc23)NC(=O)[C@H]([C@@H](C)O)NC1=O ?
1.5

---

- subject of test: CAIX-expressing human HT-29 colorectal cancer cells (Homo sapiens)
- Construct: CAIX-expressing human HT-29 colorectal cancer cells; host or cells: HT-29 human colorectal cancer cells
- assay explanation: FACS binding assay (IC50 determination, competition with tracer 3BP-2776 or 3BP-4149)
- experimental setup: FACS binding assay, HT-29 cells, competition with tracer 3BP-2776 (10 nM, biotin-labeled), 4° C., 1 hour; read-out: pIC50 category (activity) (converted)
Starred links: 1 amine or outer side, 2 acyl side, 3 side chain; linkers in the order of their positions; H or OH if unused. Positions of bridges follow the written chain, without caps; N, C: chain ends. Non-standard residues stand in square brackets, D forms with d. Residues, ends and D or L forms follow the SMILES beside them. *: point of attachment. DOTA = O=C(O)CN1CCN(CC(=O)O)CCN(CC(=O)*)CCN(CC(=O)O)CC1; mXylylene = c1cc(C[*:1])cc(C[*:2])c1; Trx = NC[C@H]1CC[C@H](C(=O)O)CC1; X2 = O=C(CN1CCC(N[*:1])CC1)[*:2]; X1 = O=C(CN1CCN([*:1])CC1)[*:2]; Dap = NC[C@H](N)C(=O)O
# IC50 values compiled below

Previously resolved entries follow.
compound	subject of test	IC50
CC(C)C[C@@H]1NC(=O)[C@H](Cc2c[nH]c3ccccc23)NC(=O)[C@H](CC(=O)O)NC(=O)[C@H]2CCCN2C(=O)[C@H](CCC(=O)O)NC(=O)[C@@H]2CSCc3cccc(c3)CSC[C@@H](C(N)=O)NC(=O)[C@H](CNC(=O)C[C@H](NC(=O)CN3CCN(C(=O)CN4CCN(CC(=O)O)CCN(CC(=O)O)CCN(CC(=O)O)CC4)CC3)C(=O)N2)NC(=O)[C@H](Cc2c[nH]c3ccccc23)NC(=O)[C@H]([C@@H](C)O)NC1=O [3BP-4255] ({DOTA}-[X1]DCE[dP]DWLTW[Dap]C-NH2; lactam 2-11; linker 3-12 via mXylylene)	CAIX-expressing human HT-29 colorectal cancer cells (Homo sapiens)	< 0.01 µM
CC(C)C[C@@H]1NC(=O)[C@H](Cc2cccc(NC(=O)Cn3cc(C(=O)NO)nn3)c2)NC(=O)[C@H](CC(=O)O)NC(=O)[C@H]2CCCN2C(=O)[C@H](CCC(=O)O)NC(=O)[C@@H](NC(=O)[C@H](CCC(N)=O)NC(=O)CN2CCN(C(=O)CN3CCN(CC(=O)O)CCN(CC(=O)O)CCN(CC(=O)O)CC3)CC2)CSCc2cccc(c2)CSC[C@@H](C(N)=O)NC(=O)[C@H](CO)NC(=O)[C@H](Cc2c[nH]c3ccccc23)NC(=O)[C@H]([C@@H](C)O)NC1=O [3BP-4847]	CAIX-expressing human HT-29 colorectal cancer cells (Homo sapiens)	0.1 to 0.794 µM
CC(C)C[C@@H]1NC(=O)[C@H](Cc2c[nH]c3ccccc23)NC(=O)[C@H](CC(=O)O)NC(=O)[C@H]2CCCN2C(=O)[C@H](CCC(=O)O)NC(=O)[C@@H]2CSCc3cccc(c3)CSC[C@@H](C(N)=O)NC(=O)[C@H](CNC(=O)C[C@H](NC(=O)[C@H]3CC[C@H](CNC(=O)CN4CCN(CC(=O)O)CCN(CC(=O)O)CCN(CC(=O)O)CC4)CC3)C(=O)N2)NC(=O)[C@H](Cc2c[nH]c3ccccc23)NC(=O)[C@H]([C@@H](C)O)NC1=O [3BP-4258] ({DOTA-Trx}-DCE[dP]DWLTW[Dap]C-NH2; lactam 1-10; linker 2-11 via mXylylene)	CAIX-expressing human HT-29 colorectal cancer cells (Homo sapiens)	< 0.01 µM

--- query ---
Fill in the blank: the reported IC50 of CC(C)C[C@@H]1NC(=O)[C@H](Cc2c[nH]c3ccccc23)NC(=O)[C@H](CC(=O)O)NC(=O)[C@H]2CCCN2C(=O)[C@H](CCC(N)=O)NC(=O)[C@@H](NC(=O)[C@H](Cc2ccc(O)cc2)NC(=O)[C@@H](NC(=O)CN2CCC(NC(=O)CN3CCN(CC(=O)O)CCN(CC(=O)O)CCN(CC(=O)O)CC3)CC2)C(C)C)CSCc2cccc(c2)CSC[C@@H](C(N)=O)NC(=O)[C@H](CO)NC(=O)[C@H](Cc2c[nH]c3ccccc23)NC(=O)[C@H]([C@@H](C)O)NC1=O [3BP-4104] ({DOTA}-[X2]VYCQ[dP]DWLTWSC-NH2; linker 4-13 via mXylylene) is ____.
< 0.01 µM

---

- assay explanation: Extended single-dose toxicity study including safety pharmacology endpoints, i.v. bolus (GLP)
- Type: in vivo, beagle dogs
- experimental setup: beagle, dog, plasma, iv, 400 ug/kg; Female; 400 μg/kg single i.v. bolus; mean n = 3; read-out: Vss
observable: Vd (L/kg)
Reply with just the number (in L/kg).

State the recorded Vd for this entry: CC(C)C[C@@H]1NC(=O)[C@H](Cc2cccc(NC(=O)CCCS(N)(=O)=O)c2)NC(=O)[C@H](CC(=O)O)NC(=O)[C@H]2CCCN2C(=O)[C@H](CCC(=O)O)NC(=O)[C@@H](NC(=O)[C@H](CCC(N)=O)NC(=O)CN2CCN(C(=O)CN3CCN(CC(=O)O)CCN(CC(=O)O)CCN(CC(=O)O)CC3)CC2)CSCc2cccc(c2)CSC[C@@H](C(N)=O)NC(=O)[C@H](CO)NC(=O)[C@H](Cc2c[nH]c3ccccc23)NC(=O)[C@H]([C@@H](C)O)NC1=O [DPI-4452]
0.19

---

- assay explanation: Biodistribution study in healthy dog (SPECT/CT, blood pharmacokinetics, urine excretion)
- experimental setup: in vivo, iv
observable: half-life (min)
Your answer should be a plain number; it is taken to be in min.

Suppose we examine the compound CC(C)C[C@@H]1NC(=O)[C@H](Cc2cccc(NC(=O)CCCS(N)(=O)=O)c2)NC(=O)[C@H](CC(=O)O)NC(=O)[C@H]2CCCN2C(=O)[C@H](CCC(=O)O)NC(=O)[C@@H](NC(=O)[C@H](CCC(N)=O)NC(=O)CN2CCN(C(=O)CN3CCN(CC(=O)O)CCN(CC(=O)O)CCN(CC(=O)O)CC3)CC2)CSCc2cccc(c2)CSC[C@@H](C(N)=O)NC(=O)[C@H](CO)NC(=O)[C@H](Cc2c[nH]c3ccccc23)NC(=O)[C@H]([C@@H](C)O)NC1=O [[^111In]In-DPI-4452, metal not drawn] ; what half-life value has been reported?
5.43

---

- subject of test: CAIX-expressing human HT-29 colorectal cancer cells (Homo sapiens, UniProt Q16790)
- Construct: CAIX-expressing human HT-29 colorectal cancer cells; host or cells: HT-29 human colorectal cancer cells
- assay explanation: FACS binding assay (IC50 determination, competition with tracer 3BP-2776 or 3BP-4149)
- experimental setup: FACS competition on HT-29 cells, Tracer ID 3BP-2776 (10 nM, biotin-labeled), 4° C., 1 hour; read-out: pIC50 category (activity) (converted)
Starred links: 1 amine or outer side, 2 acyl side, 3 side chain; linkers in the order of their positions; H or OH if unused. Positions of bridges follow the written chain, without caps; N, C: chain ends. Non-standard residues stand in square brackets, D forms with d. Residues, ends and D or L forms follow the SMILES beside them. *: point of attachment. DOTA = O=C(O)CN1CCN(CC(=O)O)CCN(CC(=O)*)CCN(CC(=O)O)CC1; Desaminotyrosyl = O=C(CCc1ccc(O)cc1)*; mXylylene = c1cc(C[*:1])cc(C[*:2])c1; X2 = O=C(CN1CCC(N[*:1])CC1)[*:2]; Ac6c = NC1(C(=O)O)CCCCC1
observable: IC50

compound	IC50
CC(C)[C@H](NC(=O)CN1CCC(NC(=O)CN2CCN(CC(=O)O)CCN(CC(=O)O)CCN(CC(=O)O)CC2)CC1)C(=O)N[C@@H](Cc1ccc(O)cc1)C(=O)N[C@H]1CSCc2cccc(c2)CSC[C@@H](C(N)=O)NC(=O)[C@H](CO)NC(=O)[C@H](Cc2c[nH]c3ccccc23)NC(=O)[C@H]([C@@H](C)O)NC(=O)C2(CCCCC2)NC(=O)[C@H](Cc2c[nH]c3ccccc23)NC(=O)[C@H](CC(=O)O)NC(=O)[C@H]2CCCN2C(=O)[C@H](CCC(=O)O)NC1=O [3BP-3584] ({DOTA}-[X2]VYCE[dP]DW[Ac6c]TWSC-NH2; linker 4-13 via mXylylene)	< 10 nM

Here's the next entry for you.
What does the data say about its IC50? Entry: CC(C)C[C@@H]1NC(=O)[C@H](Cc2c[nH]c3ccccc23)NC(=O)[C@H](CC(=O)O)NC(=O)[C@H]2CCCN2C(=O)[C@H](CCC(=O)O)NC(=O)[C@@H](NC(=O)CCc2ccc(O)cc2)CSCc2cccc(c2)CSC[C@@H](C(N)=O)NC(=O)[C@H](CO)NC(=O)[C@H](Cc2c[nH]c3ccccc23)NC(=O)[C@H]([C@@H](C)O)NC1=O [3BP-3731] (Desaminotyrosyl-CE[dP]DWLTWSC-NH2; linker 1-10 via mXylylene)
10 to 79.4 nM
